// provenance: PubChem BioAssay

Entries and their inhibition values follow.
Test Protocol: 384-well plate pilot, post-Golgi transport modulator project, inhibition of yeast transport mutant growth (AID 636)
Condition Info: absorbance 615 nm, about 18 h, stronger effect = higher value

Compound	inhibition (%)
CCCCOc1ccccc1C(=O)NCCCC(=O)O	-4.08
CCCNC(=O)Nc1ccccc1C(=O)Nc1ccc(OC)cc1	-4.46
COc1ccc(CC(=O)OCC(=O)NC(=O)NC2CCCCC2)cc1	-5.13
Cc1cc(C(=O)NCCCc2ccccc2)no1	-5
CCCCC(c1nnnn1C1CCCC1)N1CCN(C2CCCCC2)CC1 (stereo not given)	-6.62
CC(=O)N(c1ccc(N(C(C)=O)S(=O)(=O)c2cccs2)cc1)S(=O)(=O)c1cccs1	-1.18
COCCn1c(C)cc(C(=O)COC(=O)c2n[nH]c3ccccc23)c1C	-8.24
CCOC(=O)c1c(N)sn(-c2ccccc2)c1=S	-0.9
O=c1c(F)cn(C2CCCO2)c(=O)n1Cc1c(F)cccc1Cl (stereo not given)	-0.13
Cc1ccc(Cn2ncc3c(NCCCN4CCOCC4)ncnc32)cc1	-2.63
CCOC(=O)N1CCC2(O)CCCCC2C1c1ccc(F)cc1 (stereo not given)	-3.33
CCOc1cc(C2c3c(n[nH]c3C)C(=O)N2c2ccc(Br)cc2)ccc1O (stereo not given)	-4.27
c1cnc2c(SCc3ccc(-c4nnco4)cc3)cccc2c1	-2.03
O=C(CSc1nnnn1-c1ccc2c(c1)OCO2)NCc1cccs1	-5.68
CN1CCCN(CC(O)COCc2cccs2)CC1 (stereo not given)	-5.54
CCN1CCN(C(=O)c2ccc3c(=O)n(C4CCCC4)c(=S)[nH]c3c2)CC1	7.37
Cc1nn(-c2ccccc2)c(C)c1/C=N/O	-4.73
Cc1cc(C)nc(NC(=O)c2ccc(OC(C)C)cc2)n1	-6.03
CC1(C)Cc2noc(N)c2C(C)(C)N1O	-4.61
COc1ccccc1OCc1ccc(C(=O)NC(C)(C)C)o1	1.71
CCOc1cc(C(=O)NCc2ccncc2)cc(OCC)c1OCC	-6.27
COC(=O)CC1SC(=O)NC1=O (stereo not given)	1.05
CC1=C(C#N)C(=O)NC(C)(C)C1	-6
CN(Cc1ccccc1)Cc1c[nH]c2ccccc12	-4.61
Cc1cc2c(cc(C(=O)NCc3cccnc3)n2Cc2ccc(Cl)cc2)o1	-1.45

----------
Test Protocol: reducers of endogenous Her2 protein level, primary screen, SKBR3 breast tumor cells, AlphaScreen, ATP viability (AID 461);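 further: percent of carrier control wells set as 100% viability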
Condition Info: 18-24 h, measured here: SKBR3 viability, ATP luminescence, at 10 µM

Chemical Structure	viability, %
Cc1ccc(NC(=O)CSc2nnc(-c3ccncc3)n2C)cc1C	90
Cc1ccc(Nc2cc(-n3nc(C)cc3C)ncn2)cc1	96.5
Cn1nnnc1SCc1cn2cccnc2n1	112
O=C(Nc1nccs1)NC(C(F)(F)F)C(F)(F)F	104
Nc1ccc(-c2ccc(N)cc2C(F)(F)F)c(C(F)(F)F)c1	94
Cn1cnnc1SCC(=O)NCc1cccc(C(F)(F)F)c1	88

----------
Test Protocol: reversal of MRP1-mediated doxorubicin resistance, pilot screen, H69AR cells, doxorubicin co-treatment (AID 601)
Condition Info: H69AR cells + 2 uM doxorubicin, CellTiter-Glo, 72 h; measured here: viability with 2 uM doxorubicin; at 10 µM; stronger effect = lower value
Entries and their viability values follow.
Measured Metric: viability (%)

Compound	Measured Metric	Unit Symbol	Val
O=C1CCCCCN1CSc1nc2ccccc2s1	viability	%	83.3
CC(C)c1ccc(S(=O)(=O)N2CCN(C(=O)c3cccc(F)c3)CC2)cc1	viability	%	96.9
CCN(Cc1cc2ccccc2[nH]c1=O)S(=O)(=O)c1ccccc1	viability	%	99.8
COc1ccc(C(=O)N2CCN(C3CCC(c4ccccc4)CC3)CC2)cc1OC (stereo not drawn)	viability	%	85.6
O=C1CCCC2=C1C(c1ccsc1)CC(=O)N2c1ccccc1 (stereo not drawn)	viability	%	95.7
O=C(CSc1nc(-c2ccccc2)cs1)NC(=O)NCc1ccco1	viability	%	77.6
COc1cccc(NC(=O)N2CCN(c3cccc(C)c3C)CC2)c1	viability	%	87.4
CC(=O)Nc1nc(-c2ccc(Cl)cc2)nc(C)c1C(C)=O	viability	%	94.6
CC(=O)N1CCN(S(=O)(=O)c2cccc(C(=O)Nc3ccc4c(c3)CCC4)c2)CC1	viability	%	93.2
COc1ccc(S(=O)(=O)N2CN(Cc3ccco3)c3nc4ccccc4nc32)cc1	viability	%	94.2
O=C(Cn1ccc2ccccc2c1=O)Nc1ccc2c(c1)OCO2	viability	%	92.2
COc1cccc(NC(=O)NC2(C(F)(F)F)Oc3ccccc3O2)c1	viability	%	48.1
Cc1ccnc(NC(=O)CCC(=O)N(CC(=O)NC2CCCCC2)c2cccc(C)c2C)c1	viability	%	94.5
Clc1cc2c(c(Cn3cnc4ccccc43)c1)OCOC2	viability	%	91.6
Cc1ccccc1N1OC2C(=O)N(c3ccc(F)cc3)C(=O)C2C1c1ccccn1 (stereo not drawn)	viability	%	81.5
CCCCN(C)Cc1c(C)[nH]c2c(Cl)cccc2c1=O	viability	%	76.9
Cc1noc(C)c1S(=O)(=O)N1CCC(C(=O)Nc2ccccn2)CC1	viability	%	83.3
O=C(O)Cn1cc2c(n1)CCCC2	viability	%	94
Cc1cccn2c(=O)c3cc(C(=O)N4CCCc5ccccc54)n(C)c3nc12	viability	%	89.2
[N-]=[N+]=CC(=O)CC(c1ccccc1)N1C(=O)c2ccccc2C1=O (stereo not drawn)	viability	%	97
Cc1cc(C(=O)CSc2nc3ccccc3[nH]2)c(C)n1C	viability	%	81.6
Cc1cc(C)nc(NC(=O)c2ccc(OC(C)C)cc2)n1	viability	%	90.2
CCOC(=O)CSC1=C(C#N)C(=O)NC(c2ccc(OC)c(OC)c2)S1 (stereo not drawn)	viability	%	99
